Ref: patent US7872101B1

Molecular target: GPR78 (Homo sapiens, UniProt Q96P69)
Construct: Full length open reading frames (ORFS) of GPR78 and GPR26 were obtained with PCR; expressed in transfected cells; host or cells: HEK293/cre-luc
Sequence (Q96P69 whole entry): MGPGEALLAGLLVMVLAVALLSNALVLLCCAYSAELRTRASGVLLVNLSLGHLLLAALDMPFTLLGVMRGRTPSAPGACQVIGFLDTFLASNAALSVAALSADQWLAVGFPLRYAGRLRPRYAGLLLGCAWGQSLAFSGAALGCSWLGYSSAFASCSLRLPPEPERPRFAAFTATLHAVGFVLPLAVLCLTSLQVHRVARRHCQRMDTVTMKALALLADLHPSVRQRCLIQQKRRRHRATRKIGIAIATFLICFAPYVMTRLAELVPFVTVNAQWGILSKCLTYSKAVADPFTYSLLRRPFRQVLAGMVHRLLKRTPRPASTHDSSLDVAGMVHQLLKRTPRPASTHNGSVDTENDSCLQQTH
Test: antagonist cre-luc reporter assay, inhibition of GPR78 activation
Format: cell-based
Settings: cre-luc reporter assay, dose-response curves; read-out: IC50, inhibition of GPR78 activation
quantity kind: pIC50
Keep it numeric: pIC50 is minus log10 of the concentration in mol/L.

In: Which pIC50 is listed for C[n+]1cc2c3c(ccc2c2ccc4cc5c(cc4c21)OCO5)OCO3 [sanguinarine Cl hydrate] ?
Out: 6.19

###

Molecular target: GPR78 (Homo sapiens, UniProt Q96P69)
Construct: Full length open reading frames (ORFS) of GPR78 and GPR26 were obtained with PCR; expressed in transfected cells; host or cells: HEK293/cre-luc
Assay: antagonist cre-luc reporter assay, inhibition of GPR78 activation
Type: cell-based
Protocol: Screening was performed by using cells transiently expressing GPR26 or GPR78. […] Luciferase activity was determined with a Luminometer (Luminoskan Ascent, Thermo Labsystems), at a speed of 100 milliseconds per well. To determine the inhibitory potency of the two molecules, dose-response curves were generated with the same assay method and IC50 values calculated from the curves.
quantity kind: IC50
Just the number plus its unit, please.

In: What does the record list as IC50 for c1ccc2c(c1)[I+]c1ccccc1-2 [diphenyleneiodonium Cl, Diphenyleneiodonium Cl] ?
Out: 65 µM

###

Target: GPR26 (Homo sapiens)
Construct: Full length open reading frames (ORFS) of GPR78 and GPR26 were obtained with PCR; expressed in transfected cells; host or cells: HEK293/cre-luc
Sequence (Q8NDV2 whole entry): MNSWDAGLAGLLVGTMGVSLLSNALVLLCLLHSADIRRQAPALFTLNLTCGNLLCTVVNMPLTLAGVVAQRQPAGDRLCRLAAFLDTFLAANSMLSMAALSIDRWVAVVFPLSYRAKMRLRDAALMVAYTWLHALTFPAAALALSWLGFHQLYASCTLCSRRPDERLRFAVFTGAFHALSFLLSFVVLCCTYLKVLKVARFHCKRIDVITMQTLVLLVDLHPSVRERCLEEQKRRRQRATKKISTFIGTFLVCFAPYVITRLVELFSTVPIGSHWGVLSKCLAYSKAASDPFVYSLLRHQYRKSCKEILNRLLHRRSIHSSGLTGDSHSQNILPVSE
Assay: antagonist cre-luc reporter assay, inhibition of GPR26 activation
Format: cell-based
Conditions: cre-luc reporter assay, dose-response curves; read-out: IC50, inhibition of GPR26 activation
quantity kind: pIC50
pIC50 is a log-scale quantity: -log10 of the concentration expressed in molar.

In: # get_value(readout='pIC50', item= C[n+]1cc2c3c(ccc2c2ccc4cc5c(cc4c21)OCO5)OCO3 [sanguinarine Cl hydrate] )
Out: 6.59

###

Molecular target: GPR78 (Homo sapiens)
Construct: Full length open reading frames (ORFS) of GPR78 and GPR26 were obtained with PCR; expressed in transfected cells; host or cells: HEK293/cre-luc
Assay: direct intracellular cAMP measurement (Meso Scale Discovery kit) in HEK293/cre-luc cells stably transfected with GPR78
Type: cell-based
Details: FIG. 2C, read-out: EC50, increase of cAMP level
pEC50: −log10 of the molar value.
quantity kind: pEC50

In: So what's the measured pEC50 for this one? `O=c1c(-c2ccc(O)cc2)coc2cc(O)cc(O)c12`
Out: ~5.22

###

Molecular target: GPR26 (Homo sapiens)
Construct: Full length open reading frames (ORFS) of GPR78 and GPR26 were obtained with PCR
Experiment: cre-luciferase cAMP reporter assay in GPR26-transfected HEK293/cre-luc cells
Conditions: cre-luc reporter assay, transient transfection, FIG. 8A; read-out: EC50, activation of GPR26
pEC50: −log10 of the molar value.
quantity kind: pEC50

In: # lookup: pEC50 of `O=c1c(-c2ccc(O)cc2)coc2cc(O)cc(O)c12`
Out: ~5.00

###

Target: GPR26 (Homo sapiens)
Construct: Full length open reading frames (ORFS) of GPR78 and GPR26 were obtained with PCR; expressed in transfected cells; host or cells: HEK293/cre-luc
Experiment: antagonist cre-luc reporter assay, inhibition of GPR26 activation
Type: cell-based
quantity kind: pIC50
Hey, just a heads up that pIC50 is the negative log base 10 of the concentration in molar.

In: What does the data say about its pIC50? Entry: c1ccc2c(c1)[I+]c1ccccc1-2 [diphenyleneiodonium Cl, Diphenyleneiodonium Cl]
Out: 4.41
